# System: anti-BSA-cmoCLA(ae) antibodies
# test: Indirect competitive ELISA (icELISA), variants by coating antigen
# Format: binding, rabbit
# test.settings: coating antigen OVA-aecAZI(dma); CLA = 100

compound | experimental.target | CR / %
CC[C@H]1OC(=O)[C@H](C)[C@@H](O[C@H]2C[C@@](C)(OC)[C@@H](O)[C@H](C)O2)[C@H](C)[C@@H](O[C@@H]2O[C@H](C)C[C@H](N(C)C)[C@H]2O)[C@](C)(O)C[C@@H](C)C(=O)[C@H](C)[C@@H](O)[C@]1(C)O [ERY, Erythromycin] | anti-BSA-cmoCLA(ae) antibodies | 70.4
CC[C@H]1OC(=O)[C@H](C)[C@@H](O[C@H]2C[C@@](C)(OC)[C@@H](O)[C@H](C)O2)[C@H](C)[C@@H](O[C@@H]2O[C@H](C)C[C@H](N(C)C)[C@H]2O)[C@](C)(O)C[C@@H](C)CN(C)[C@H](C)[C@@H](O)[C@]1(C)O [AZI, azithromycin] | anti-BSA-cmoCLA(ae) antibodies | 12.9
CC[C@H]1OC(=O)[C@H](C)[C@@H](O[C@H]2C[C@@](C)(OC)[C@@H](O)[C@H](C)O2)[C@H](C)[C@@H](O[C@@H]2O[C@H](C)C[C@H](N(C)C)[C@H]2O)[C@](C)(O)C[C@@H](C)/C(=N\OCOCCOC)[C@H](C)[C@@H](O)[C@]1(C)O [ROX, roxithromycin] | anti-BSA-cmoCLA(ae) antibodies | 100
CC[C@H]1OC(=O)[C@H](C)[C@@H](O[C@H]2C[C@@](C)(OC)[C@@H](O)[C@H](C)O2)[C@H](C)[C@@H](O[C@@H]2O[C@H](C)C[C@H](N(C)C)[C@H]2O)[C@](C)(OC)C[C@@H](C)C(=O)[C@H](C)[C@@H](O)[C@]1(C)O [CLA, clarithromycin] | anti-BSA-cmoCLA(ae) antibodies | 100

* * *

# System: anti-BSA-cmoCLA(ae) antibodies
# test: Indirect competitive ELISA (icELISA), variants by coating antigen
# Type: binding, rabbit
# test.settings: coating antigen OVA-aecAZI(dma)
Mark Criterion met for IC50 under 0.5 ng/mL, Criterion not met if at or over.

compound | experimental.target | assigned.label
CO[C@H]1C[C@H](O[C@H]2[C@H](C)[C@@H](O[C@@H]3O[C@H](C)C[C@H](N(C)C)[C@H]3O)[C@@H](C)C[C@@]3(CO3)C(=O)[C@H](C)[C@@H](O)[C@@H](C)[C@@H](C)OC(=O)[C@@H]2C)O[C@@H](C)[C@@H]1O [OLE, oleandomycin] | anti-BSA-cmoCLA(ae) antibodies | Criterion not met
CC[C@H]1OC(=O)[C@H](C)[C@@H](O[C@H]2C[C@@](C)(OC)[C@@H](O)[C@H](C)O2)[C@H](C)[C@@H](O[C@@H]2O[C@H](C)C[C@H](N(C)C)[C@H]2O)[C@](C)(OC)C[C@@H](C)C(=O)[C@H](C)[C@@H](O)[C@]1(C)O [CLA, clarithromycin] | anti-BSA-cmoCLA(ae) antibodies | Criterion met
CCOC(=O)CCC(=O)O[C@H]1[C@H](O[C@@H]2[C@@H](C)[C@H](O[C@H]3C[C@@](C)(OC)[C@@H](O)[C@H](C)O3)[C@@H](C)C(=O)O[C@H](CC)[C@@](C)(O)[C@H](O)[C@@H](C)C(=O)[C@H](C)C[C@@]2(C)O)O[C@H](C)C[C@@H]1N(C)C [ESE, erythromycin ethyl succinate] | anti-BSA-cmoCLA(ae) antibodies | Criterion met
CCCNC[C@]1(O)[C@H](C)O[C@@H](O[C@H]2[C@H](C)[C@@H](O[C@@H]3O[C@H](C)C[C@H](N(C)C)[C@H]3O)[C@](C)(O)C[C@@H](C)CN[C@H](C)[C@@H](O)[C@](C)(O)[C@@H](CC)OC(=O)[C@@H]2C)C[C@@]1(C)OC [TUL, tulathromycin] | anti-BSA-cmoCLA(ae) antibodies | Criterion not met
CC[C@H]1OC(=O)[C@H](C)[C@@H](O[C@H]2C[C@@](C)(OC)[C@@H](O)[C@H](C)O2)[C@H](C)[C@@H](O[C@@H]2O[C@H](C)C[C@H](N(C)C)[C@H]2O)[C@](C)(O)C[C@@H](C)C(=O)[C@H](C)[C@@H](O)[C@]1(C)O [ERY, Erythromycin] | anti-BSA-cmoCLA(ae) antibodies | Criterion met
CC[C@H]1OC(=O)[C@H](C)[C@@H](O[C@H]2C[C@@](C)(OC)[C@@H](O)[C@H](C)O2)[C@H](C)[C@@H](O[C@@H]2O[C@H](C)C[C@H](N(C)C)[C@H]2O)[C@](C)(O)C[C@@H](C)/C(=N\OCOCCOC)[C@H](C)[C@@H](O)[C@]1(C)O [ROX, roxithromycin] | anti-BSA-cmoCLA(ae) antibodies | Criterion met
CC[C@H]1OC(=O)[C@H](C)[C@@H](O[C@H]2C[C@@](C)(OC)[C@@H](O)[C@H](C)O2)[C@H](C)[C@@H](O[C@@H]2O[C@H](C)C[C@H](N(C)C)[C@H]2O)[C@](C)(O)C[C@@H](C)[C@@H]2N[C@@H](COCCOC)O[C@H]([C@H]2C)[C@]1(C)O [DIR, dirithromycin] | anti-BSA-cmoCLA(ae) antibodies | Criterion not met
CC[C@H]1OC(=O)[C@H](C)[C@@H](O[C@H]2C[C@@](C)(OC)[C@@H](O)[C@H](C)O2)[C@H](C)[C@@H](O[C@@H]2O[C@H](C)C[C@H](N(C)C)[C@H]2O)[C@](C)(O)C[C@@H](C)CN(C)[C@H](C)[C@@H](O)[C@]1(C)O [AZI, azithromycin] | anti-BSA-cmoCLA(ae) antibodies | Criterion not met

Origin of measurements: paper PMC10605010
